Tested on: pigweed (Amaranthus retroflexus)
Experimental details: Test A postemergence
Assay type: in vivo
Assay setup: 125 g ai/ha, postemergence; visual rating after approx. 10 d, 0 to 100 scale (0 no effect, 100 complete control)
Can you tell me Plant response rating, Pigweed for the items I'm about to list?
Numbers only.

Okay, here is my list. What is Plant response rating, Pigweed for each of these?
1. O=C1NCC(c2cc(F)c(F)cc2F)C1C(=O)Nc1ccc(F)cc1F (racemic)
2. NS(=O)(=O)c1ccccc1NC(=O)C1C(=O)NCC1c1cccc(C(F)(F)F)c1 (centres unmarked)
3. CN1CC(c2cccc(C(F)(F)F)c2)C(C(=O)Nc2cccc(Cl)c2F)C1=O (centres unmarked)

1. 0
2. 0
3. 20

Where do these numbers come from? They come from patent US12077503B2.
